Reference source: patent US12486300B2

test system: TC32 Ewing sarcoma cells, expressing EWS-FLI1; assay: Growth inhibition assay, TC32 cells; type: cell-based; conditions: ratio of GI50 PC3 to TC32
Overview of reported PC:TC32 (cellular selectivity) across a group of compounds:
Test Readout: PC:TC32 (cellular selectivity)

1. COC(C(=NOCC(=O)Nc1ccc2ncccc2c1)C(O)C(C)O)C1Cc2cc3cc(OC4CC(OC5CC(O)C(O)C(C)O5)C(O)C(C)O4)c(C)c(O)c3c(O)c2C(=O)C1OC1CC(OC2CC(OC3CC(C)(O)C(O)C(C)O3)C(O)C(C)O2)C(O)C(C)O1 (stereo not shown) [MTM (74)] : 66.6
2. CCOC(=O)[C@H](Cc1c[nH]c2ccccc12)NC(=O)CO/N=C(\[C@@H](O)[C@@H](C)O)[C@@H](OC)[C@@H]1Cc2cc3cc(O[C@H]4C[C@@H](O[C@H]5C[C@@H](O)[C@H](O)C(C)O5)[C@H](O)C(C)O4)c(C)c(O)c3c(O)c2C(=O)[C@H]1O[C@H]1C[C@@H](O[C@H]2C[C@@H](O[C@H]3C[C@](C)(O)[C@H](O)C(C)O3)[C@H](O)C(C)O2)[C@H](O)C(C)O1 (stereo partly shown) [MTM (41)] : 13.5
3. COC(C(=NOCC(=O)NC(Cc1c[nH]c2ccccc12)C(=O)O)C(O)C(C)O)C1Cc2cc3cc(OC4CC(OC5CC(O)C(O)C(C)O5)C(O)C(C)O4)c(C)c(O)c3c(O)c2C(=O)C1OC1CC(OC2CC(OC3CC(C)(O)C(O)C(C)O3)C(O)C(C)O2)C(O)C(C)O1 (stereo not shown) [MTM (39)] : 7.4
4. COC(=O)C(Cc1c[nH]c2ccccc12)NC(=O)C(Cc1ccccc1)NC(=O)CON=C(C(O)C(C)O)C(OC)C1Cc2cc3cc(OC4CC(OC5CC(O)C(O)C(C)O5)C(O)C(C)O4)c(C)c(O)c3c(O)c2C(=O)C1OC1CC(OC2CC(OC3CC(C)(O)C(O)C(C)O3)C(O)C(C)O2)C(O)C(C)O1 (stereo not shown) [MTM (23)] : 7.31
